All values here come from patent US20230250185A1.

Biological target: T1, CD123-Fc (Sino Biological) (human, UniProt P26951 19-305)
T1 construct: Bought reagent; not shown: Fc part of the bought fusion (detected with anti-human Fc HRP)
T1 sequence: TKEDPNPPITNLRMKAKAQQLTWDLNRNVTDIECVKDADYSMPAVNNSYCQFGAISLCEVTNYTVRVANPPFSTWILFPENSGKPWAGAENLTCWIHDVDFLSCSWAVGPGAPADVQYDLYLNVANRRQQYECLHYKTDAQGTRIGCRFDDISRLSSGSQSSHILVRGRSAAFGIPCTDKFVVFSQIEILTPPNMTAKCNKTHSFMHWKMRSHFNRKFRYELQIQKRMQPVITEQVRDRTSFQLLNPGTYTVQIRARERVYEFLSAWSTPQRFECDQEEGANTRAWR
Test: ELISA, serial dilution of MBP fusion normalized for protein concentration; readout CD123-Fc Binding (A450)
Parameter: EC50. Scope: all listed entries.

| BINDER | EC50 [ng/mL] |
| --- | --- |
| 1J1K D domain as MBP fusion (designed binder, not shown: large carriers; small tags and cut ends, also called 8W9C (G8S)) MGSWDEFSRRLYAIEWRLYALGGSEAELAAFEKEIAAFESELQAYKGKGNPEVEKLREIAAVIRSNLQAYRHN | 3.69 |
| 5S5W D domain as MBP fusion (designed binder, not shown: limits, linker and position relative to the D dom) MGSWSEFNMRLDAIYERLTALGGSEAELAAFEKEIAAFESELQAYKGKGNPEVEWLRHSAARIRLELQAYRHN | 68.7 |
| 5B7L D domain as MBP fusion (designed binder, not shown: limits, linker and position relative to the D dom) MGSWIEFNMRLDAIYERLVALGGSEAELAAFEKEIAAFESELQAYKGKGNPEVEWLRKVAANIRLELQAYRHN | 5.12 |
| 8W9C D domain as MBP fusion (designed binder, Expressed in E. coli and assayed from leak-out supernatant; also called wild-type (8W9C); parental 8W9C; not shown: limits, linker and position relative to the D dom) MGSWDEFGRRLYAIEWRLYALGGSEAELAAFEKEIAAFESELQAYKGKGNPEVEKLREIAAVIRSNLQAYRHN | 7.47 |
